- assayed system: human CD33 L141A (human, UniProt P20138 18-364)
- Sequence (P20138 18-364 L141A limits assumed): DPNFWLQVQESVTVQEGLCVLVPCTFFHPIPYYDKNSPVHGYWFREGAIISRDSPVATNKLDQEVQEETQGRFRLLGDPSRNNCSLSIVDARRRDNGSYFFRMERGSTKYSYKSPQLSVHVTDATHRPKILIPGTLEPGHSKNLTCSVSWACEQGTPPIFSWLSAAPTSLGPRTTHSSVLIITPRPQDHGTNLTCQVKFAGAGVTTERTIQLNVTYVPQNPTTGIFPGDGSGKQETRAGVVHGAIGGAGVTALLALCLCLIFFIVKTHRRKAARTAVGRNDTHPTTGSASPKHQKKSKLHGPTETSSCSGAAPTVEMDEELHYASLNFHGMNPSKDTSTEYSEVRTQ
- assay procedure: flow cytometry on HEK293-T, alanine scan
assay metric: Mean % WT Binding

binder | assay metric | data value
Refmab #4 (antibody, V domains shown, The alanine scan used IgG or Fab) VH: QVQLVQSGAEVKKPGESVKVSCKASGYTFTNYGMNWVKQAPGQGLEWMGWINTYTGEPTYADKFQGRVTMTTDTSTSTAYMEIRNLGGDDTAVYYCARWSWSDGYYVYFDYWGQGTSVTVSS VL: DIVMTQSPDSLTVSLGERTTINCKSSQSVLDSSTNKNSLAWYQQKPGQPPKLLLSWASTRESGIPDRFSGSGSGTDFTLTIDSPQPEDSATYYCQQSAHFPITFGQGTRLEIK | Mean % WT Binding | 93.7 % WT binding
